Target Or System: T1, hRGMa-His (human, UniProt Q96B86 48-422, limits assumed)
T1 construct: not shown: His tag
T1 sequence (looked up): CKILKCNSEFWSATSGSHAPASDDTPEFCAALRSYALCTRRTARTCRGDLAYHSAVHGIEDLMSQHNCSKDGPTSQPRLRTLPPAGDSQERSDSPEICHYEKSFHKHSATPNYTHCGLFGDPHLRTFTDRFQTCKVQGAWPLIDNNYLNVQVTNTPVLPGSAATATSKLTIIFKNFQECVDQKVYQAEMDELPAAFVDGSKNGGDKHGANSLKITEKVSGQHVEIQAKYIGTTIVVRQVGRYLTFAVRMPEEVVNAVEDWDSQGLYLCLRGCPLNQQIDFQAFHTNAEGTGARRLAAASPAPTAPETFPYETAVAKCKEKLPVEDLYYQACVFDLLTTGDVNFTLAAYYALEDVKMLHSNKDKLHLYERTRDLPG
Test Description: Affinity KD (nM); (BIAcore per Example 4)
pKd: −log10 of the molar value.
Overview of recorded pKd for various binders
Assay Metric: pKd

RGMA-h5F9Vh7a/pJP291 hIgG1/K mut (antibody, V domains shown, Tested as IgG; also called h5F9.AM4; H5F9AM.4) VH: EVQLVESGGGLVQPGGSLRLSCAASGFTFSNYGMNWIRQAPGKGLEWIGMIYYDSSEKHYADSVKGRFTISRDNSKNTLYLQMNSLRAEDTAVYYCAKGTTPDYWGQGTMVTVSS VL: DVVLTQSPLSLPVTLGQPASISCRSSQSLESSDGDTFLEWFQQRPGQSPRLLIYDVSTRFSGVPDRFSGSGSGTDFTLKISRVEAEDVGVYYCFQVTHDPVTFGQGTKLEIK ... 10.82
RGMA-h5F9pJP297/pJP299 hIgG1/K mut (antibody, V domains shown, Tested as IgG; also called h5F9.AM9; H5F9AM.9) VH: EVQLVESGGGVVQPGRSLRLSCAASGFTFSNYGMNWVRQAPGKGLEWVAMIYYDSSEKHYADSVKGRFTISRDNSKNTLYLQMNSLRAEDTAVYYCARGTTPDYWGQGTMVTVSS VL: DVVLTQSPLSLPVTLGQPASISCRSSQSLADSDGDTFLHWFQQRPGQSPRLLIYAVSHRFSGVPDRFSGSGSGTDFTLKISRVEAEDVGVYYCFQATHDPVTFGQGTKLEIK ... 9.33
RGMA-h5F9pJP297/pJP298 hIgG1/K mut (antibody, V domains shown, Tested as IgG; also called h5F9.AM8; H5F9AM.8) VH: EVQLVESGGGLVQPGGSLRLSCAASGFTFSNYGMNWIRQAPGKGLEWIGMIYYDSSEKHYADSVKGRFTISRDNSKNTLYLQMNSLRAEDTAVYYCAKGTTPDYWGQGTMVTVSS VL: DVVLTQSPLSLPVTLGQPASISCRSSQSLEESDGYTFLHWFQQRPGQSPRLLIYEVSTRFSGVPDRFSGSGSGTDFTLKISRVEAEDVGVYYCFQATHDPLTFGQGTKLEIK ... 10.51
RGMA-h5F9pJP302/pJP303 hIgG1/K mut (antibody, V domains shown, Tested as IgG; also called h5F9.AM11; H5F9AM.11) VH: EVQLVESGGGLVQPGGSLRLSCAASGFTFSNYGMNWVRQAPGKGLEWVSMIYYDSSEKHYADSVKGRFTISRDNSKNTLYLQMNSLRAEDTAVYYCAKGTTPDYWGQGTMVTVSS VL: DVVLTQSPLSLPVTLGQPASISCRSSQSLEDSDGGTFLEWFQQRPGQSPRLLIYDVSSRFSGVPDRFSGSGSGTDFTLKISRVEAEDVGVYYCFQATHDPLSFGQGTKLEIK ... 9.96
